Tested on: Inhibin beta A chain (activin A)
Assay: INHBA (activin A) binders on microarrays, primary screen, biochemical, small-molecule microarray, 635 nm fluorescence scan (AID 1107);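 also: mouse activin A protein probed at 4.33 µg/mL on printed slides; score merges bound-protein fluorescence near 667 nm with spot signal-to-noise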
Conditions: small-molecule microarray binding, higher = more signal
Measured composite z-score by item
Form field (numeric): enter value without unit.

Worked set:
[
  {
    "compound": "O=C(NCCN1CCOCC1)[C@@H]1c2ccccc2C(=O)N(C2CCCCC2)[C@H]1c1ccc(CO)cc1",
    "composite z-score": 0.891
  },
  {
    "compound": "NC(=O)NCC#Cc1ccc2c(c1)[C@]1(C(=O)N2)[C@H](C(=O)Nc2nc3ccccc3s2)[C@H]2C(=O)O[C@H](c3ccccc3)[C@H](c3ccccc3)N2[C@@H]1c1ccccc1OCCO",
    "composite z-score": 1.08
  },
  {
    "compound": "CC(C)C(O)C1C=CC2C(=O)N(c3ccccc3)C(=O)C2N1Nc1ccc([N+](=O)[O-])cc1 (stereo not drawn)",
    "composite z-score": 0.85
  },
  {
    "compound": "COC(=O)[C@@]1(CCS(=O)(=O)c2ccccc2)N=C(c2ccc(OCCCO)cc2)O[C@H]1c1ccccc1CN=[N+]=[N-]",
    "composite z-score": 0.799
  },
  {
    "compound": "COc1ccc(C#Cc2ccc3c(c2)[C@]2(C(=O)N3)[C@H](c3ccccc3OCCO)N3[C@H](c4ccccc4)[C@H](c4ccccc4)OC(=O)[C@H]3[C@@H]2C(=O)Nc2nc3ccccc3s2)cc1",
    "composite z-score": 0.322
  }
]

Bench note: what composite z-score did CC(C)(C)OC(=O)CC[C@]1(C(=O)N2CCOCC2)N=C(c2ccc(OCCCO)cc2)O[C@H]1c1ccccc1N=[N+]=[N-] show? 0.936

Which composite z-score value belongs to CCN(CC)c1ccc(N2CC=CC34O[C@@H]5C=CCCOC(=O)C5[C@H]3C(=O)N(CCCCCCO)[C@@H]4C2=O)cc1 (stereo partly drawn) ? 0.816

Would you kindly share the measured composite z-score for CN1C=C(C(=O)OCCS(C)(=O)=O)C(C(=O)OCCS(C)(=O)=O)=CC(c2ccc(CO)cc2)=CC1C1CC1 (stereo not drawn) ? 0.99

###

Entries annotated with measured composite z-score
Target: Calmodulin-1 (Homo sapiens) (UniProt P0DP23)
Assay: calcium-bound CALM1 binders on microarrays, profiling panel, artefact control for SMM control-protein annotation, biochemical, small-molecule microarray, Cy5-labelled CALM1, plus calcium (AID 1112);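 also: score merges spot fluorescence with signal to noise from triplicate slides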
Settings: Cy5-CALM1 binding fluorescence, higher = more signal
# answer = number (no unit)

In the examples that follow, each entry is paired with its recorded composite z-score.
[
  {
    "smilesRepr": "C=C(/C(=C/C[C@H](OC(C)=O)c1ccc(CO)o1)c1cc(C(=O)OC)ccc1OC)C(C)C",
    "assayResult": -0.061
  },
  {
    "smilesRepr": "O=C1C[C@]2(c3ccc([N+](=O)[O-])cc3)C(=O)N(CC(F)(F)F)c3cc(CO)ccc3[C@H]2N1C1CCCCC1",
    "assayResult": -0.624
  },
  {
    "smilesRepr": "COc1ccc([Si](C)(C)[C@H]2[C@H](CC(=O)N3Cc4ccccc4C[C@H]3CO)O[C@@]3(C(=O)N(Cc4cccc(N5CCC5=O)c4)c4ccccc43)[C@@H]2C)cc1",
    "assayResult": -1.02
  },
  {
    "smilesRepr": "C=C(COC)/C(=C/C[C@@H](OC(C)=O)c1ccc(OCCO)cc1)c1cnc2ccccc2c1",
    "assayResult": -0.731
  },
  {
    "smilesRepr": "O=C(NCCN1CCOCC1)[C@@H]1c2ccccc2C(=O)N(C2CCCCC2)[C@H]1c1ccc(CO)cc1",
    "assayResult": -0.336
  }
]

May I ask what composite z-score has been recorded for CC(C)[Si]1(C(C)C)O[C@@H](c2ccccc2)c2cc(-c3ccc(-c4ccc(Cl)c(Cl)c4)o3)nc(-c3ccccc3)c21 ? 0.0017

Recorded composite z-score of COC(=O)[C@@]1(Cc2ccc(F)cc2)[C@H]2c3cc(C(=O)N(C)C)n(Cc4ccc(Cl)c(C(F)(F)F)c4)c3C[C@H]2CN1C(=O)c1ccccc1 , please. 1.63

###

Test system: Sonic hedgehog protein (Shh)
Experiment: small-molecule binders of Shh protein, primary screen, biochemical, small-molecule microarray, 635/667 nm fluorescence (AID 1151);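 also: Shh protein binding to compounds spotted on small-molecule microarray slides; score combines spot fluorescence intensity with signal-to-noise across triplicate slides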
Conditions: small-molecule microarray binding, 635 nm fluorescence; higher = more signal
observable: composite z-score
Give the figure by itself; no unit, no explanation.

These recorded examples may help you get a feel for the data.
[
  {
    "compound": "O=C1N(Cc2ccccc2)c2ccccc2[C@@H]2OC(c3ccc(OCCCO)cc3)=N[C@]12CCS(=O)(=O)c1ccccc1",
    "measurementTarget": "Sonic hedgehog protein (Shh)",
    "composite z-score": 0.695
  },
  {
    "compound": "CC(C)[Si](C#Cc1ccc(Oc2ccccc2)cc1)(O[Si](C#Cc1ccc(Oc2ccccc2)cc1)(C(C)C)C(C)C)C(C)C",
    "measurementTarget": "Sonic hedgehog protein (Shh)",
    "composite z-score": 1.05
  }
]

For the next question, use this compound.
# composite z-score lookup, item COC(=O)[C@@]1(Cc2ccc(F)cc2)[C@H]2c3cc(C(=O)N(C)C)n(Cc4ccc(Cl)c(C(F)(F)F)c4)c3C[C@H]2CN1C(=O)c1ccccc1 -0.823

###

Target: Calmodulin-1 (Homo sapiens)
Experiment: calcium-bound CALM1 binders on microarrays, profiling panel, artefact control for SMM control-protein annotation, biochemical, small-molecule microarray, Cy5-labelled CALM1, plus calcium (AID 1112);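 also: score merges spot fluorescence with signal to noise from triplicate slides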
Conditions: Cy5-CALM1 binding fluorescence, higher = more signal
Recorded composite z-score for the following molecules
The answer should be a number; do not append a unit.

[
  {
    "molecule": "COC(=O)[C@@]1(Cc2ccc(OC)cc2)[C@H]2c3cc(C(=O)N4CCCC4)n(Cc4ccc(C)c(F)c4F)c3C[C@H]2CN1C(=O)c1ccccc1",
    "assayResult": 1.3
  },
  {
    "molecule": "CC(C)c1ccc(NN2C(C(O)c3ccc(B(O)O)cc3)C=CC3C(=O)N(c4ccccc4)C(=O)C32)cc1 (stereo not drawn)",
    "assayResult": 1.08
  }
]

Please look at the following molecule next.
Sample CCC(CC)C(O)C1C=CC2C(=O)NC(=O)C2N1Nc1ccccn1 (stereo not drawn) — what was its composite z-score? -0.161

###

Biological target: Calmodulin-1 (Homo sapiens) (UniProt P0DP23)
Assay: CALM1 binders on microarrays, EGTA buffer, profiling panel, biochemical, small-molecule microarray, Cy5-labelled CALM1 (AID 1111);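 also: labelled calmodulin applied in Tris saline Tween buffer holding calcium plus EGTA and DTT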
Conditions: Cy5-CALM1 binding fluorescence, higher = more signal
observable: composite z-score
Respond using a number only.

[
  {
    "smilesRepr": "CC(C)(C)OC(=O)CC[C@]1(C(=O)N2CCOCC2)N=C(c2ccc(OCCCO)cc2)O[C@H]1c1ccccc1N=[N+]=[N-]",
    "composite z-score": 0.981
  },
  {
    "smilesRepr": "C=CCOC(=O)[C@H]1[C@@H]2C(=O)O[C@@H](c3ccccc3)[C@@H](c3ccccc3)N2[C@@H](c2ccc(OCCOC(=O)[C@@H]3C[C@@H]4C(=O)N[C@@H](CC(C)C)C(=O)N4[C@@H]3c3ccc(O)cc3)cc2)[C@]12C(=O)Nc1ccccc12",
    "composite z-score": 2.5
  },
  {
    "smilesRepr": "C=CCNC(=O)[C@@H]1[C@H]2C(=O)O[C@H](c3ccccc3)[C@H](c3ccccc3)N2[C@H](c2ccccc2OCCO)[C@@]12C(=O)N(C(=O)OCCOC)c1ccccc12",
    "composite z-score": 0.926
  },
  {
    "smilesRepr": "O=C1O[C@@H](c2ccccc2)[C@@H](c2ccccc2)N2[C@@H](c3ccccc3OCCO)[C@]3(C(=O)Nc4ccc(C#CC5=CCCCC5)cc43)[C@@H](C(=O)N3CCCCCCC3)[C@H]12",
    "composite z-score": 3.02
  }
]

// below: composite z-score requested for another compound
# lookup: composite z-score of CN(C)C(=O)[C@]1(Cc2ccccc2N=[N+]=[N-])N=C(c2ccc(OCCCO)cc2)O[C@@H]1c1ccccc1N=[N+]=[N-] 1.7

###

z-score values for the compounds below.
Biological target: Homeobox protein Hox-A13 (Mus musculus)
Test: inhibitors of HoxA13-DNA binding, primary screen, biochemical, fluorescence polarization, labeled oligonucleotide (AID 1185)
Conditions: 15 min, higher = more signal, called active from +8 up or from −8 down
Answer with the value's number alone.

[
  {
    "smilesRepr": "COCCOC(=O)N1C(=O)[C@@]2(c3cc(C#CCC(C(=O)OC)C(=O)OC)ccc31)[C@H](C(=O)N1CCN(c3ncccn3)CC1)[C@H]1C(=O)O[C@H](c3ccccc3)[C@H](c3ccccc3)N1[C@@H]2c1ccccc1OCCO",
    "z-score": -0.504
  },
  {
    "smilesRepr": "COc1ccc(C(=O)Nc2ccc(CN3C(=O)[C@]4(O[C@H](CCO)[C@@H]([Si](C)(C)c5ccc(OC)cc5)[C@@H]4C)c4ccccc43)cc2)cc1",
    "z-score": -0.677
  }
]

Please find the next compound below.
I have this compound here, COC(=O)[C@@]1(Cc2ccccc2)[C@H]2c3cc(C(=O)N4CCCC4)n(Cc4ccc(S(C)(=O)=O)cc4)c3C[C@H]2CN1C(=O)c1ccccc1 , and I need its recorded z-score. -4.67
